The measured values listed here are drawn from PubChem BioAssay (Tox21).

Assay: qHTS assay to test for compound auto fluorescence at 460 nm (blue) in HEK293 cells (AID 720678); further: on the % scale 0 is the no-effect control and ±100 the full control effect
Details: blue autofluorescence 405/460 nm; series mostly up to 91.3 µM
The source made the active and inactive calls. The call rests on the fitted dose curve; in most records, active means well fitted curve in the direction sought with a large enough effect in the repeat runs; inconclusive means weak or mixed curves; inactive means flat fitted curve, though single readings scatter.
Attribute Measured: fluorescence, % of triamterene

CC#Cc1cc(C)nc(Nc2ccccc2)n1
inactive
CCCCCCC(=O)CCCCCC/C=C/C[C@@H](O)[C@H](O)[C@@](N)(CO)C(=O)O
inactive
CC(C)[N+](C)(CCC(C(N)=O)(c1ccccc1)c1ccccc1)C(C)C
0.0132% [at 18.6 µM] (inactive)
CNC(=O)NC(O)C(Cl)(Cl)Cl (stereo unspecified)
inactive

Please state, for each entry, its recorded fluorescence, % of triamterene.
1. NCC1(CC(=O)O)CCCCC1
2. CN(C)C(=O)Oc1cc(OC(=O)N(C)C)cc(C(O)CNC(C)(C)C)c1 (stereo unspecified)

Return:
0.0823% [at 18.6 µM] (inactive)
0.0042% [at 18.6 µM] (inactive)

----------
Test: qHTS assay to identify small molecule antagonists of the androgen receptor (AR) signaling pathway using the MDA cell line - cell viability counter screen (AID 743041; further: on the % scale 0 is the no-effect control and ±100 the full control effect; nearly all actives have a fitted effect of over 45% in size)
Details: MDA-kb2 viability, CellTiter-Fluor, 16 h, cells co-treated with R1881 androgen agonist; series mostly up to 70.3 µM
Inconclusive results are not listed. Active and inactive are the calls of the source. The call rests on the fitted dose curve; in most records, active means well fitted cell-killing curve with a large enough effect in the repeat runs; inconclusive means weak or mixed curves, or effect the other way; inactive means flat fitted curve, though single readings scatter.
API: response.call in active, inactive

Use these answered entries as a reference point.
ClC1=C(Cl)C2(Cl)C(CBr)CC1(Cl)C2(Cl)Cl (centres undefined)
inactive
CCCCCCCCBr
inactive
CN(C)CCc1c[nH]c2cccc(OP(=O)(O)O)c12
inactive

Enquiry: Per the records of this test, what outcome belongs to O=C(Cl)CCl ?
Return: inactive

Enquiry: GET /call?item= NCCOS(=O)(=O)O returns the recorded outcome of this test.
Return: inactive

----------
Assay: qHTS assay to identify small molecule agonists of the estrogen related receptor signaling pathway with the pleiotropic PPARgamma coactivator (PGC) from Tox21 10K library (AID 1224842); further: nearly all actives have a fitted effect of over 15% in size; on activation: on the % scale 0 is the no-effect control and ±100 the full control effect
Conditions: PGC/ERR reporter cell line, luciferase ONE-Glo, 18 h; series mostly up to 92.4 µM
Inconclusive results are not listed. Activity calls are given as the source filed them. Calls come from the whole dose curve; as a rule, active = well fitted activation curve with a large enough effect in the repeat runs; inconclusive = weak or mixed curves, or effect the other way; inactive = no such curve, though single readings can be large or run the other way.
Result category, one only: active, inactive

COc1cccc(C=O)c1
inactive
CC(=O)CN(CC(C)=O)N=O
inactive
Cc1ccc(-c2nc3ccc(C)cn3c2CC(=O)N(C)C)cc1
active
CC1NCCOC1c1ccccc1 (stereo unspecified)
inactive
CCCCS(=O)(=O)Cl
inactive
OP(O)c1ccccc1
inactive
C=C1C[C@@H]2[C@H](CC[C@]3(C)C(=O)CC[C@@H]23)[C@@]2(C)C=CC(=O)C=C12
inactive
NC(=O)CS(=O)C(c1ccccc1)c1ccccc1 (stereo unspecified)
inactive
O=C(O)CBr
inactive
CNC(=O)Oc1ccccc1C(C)C
inactive

Enquiry: Call for entry O=C(CCl)NCO :
Return: inactive

Enquiry: Outcome logged for CC(C)(C)NC[C@H](O)c1ccc(O)cc1Cl in this assay:
Return: inactive

Enquiry: So what was the verdict on C=CC(=O)OCCN(C)C in this test?
Return: inactive

Enquiry: Look up the recorded call for C[C@]12C=CC(=O)C=C1CC[C@@H]1[C@@H]2CC[C@@]2(C)[C@H]1CC[C@]2(C)O in this test.
Return: inactive

Enquiry: Hi, sorry to bother you, what did the test record for Oc1ccc(Cc2ccc(O)cc2)cc1 ?
Return: inactive

----------
Assay: qHTS assay for identifying genotoxic compounds that show differential cytotoxicity against isogenic chicken DT40 cell lines with known DNA damage response pathways - Rev3 mutant cell line (AID 743014); further: nearly all actives have a fitted effect of over 55% in size
Conditions: chicken DT40 Rev3-/- viability, CellTiter-Glo, 40 h; series mostly up to 68.4 µM
Results filed as inconclusive are left out. Calls of active or inactive are those of the source. Calls come from the whole dose curve; as a rule, active = well fitted cell-killing curve with a large enough effect in the repeat runs; inconclusive = weak or mixed curves, or effect the other way; inactive = no such curve, though single readings can be large or run the other way.
Please answer using one outcome listed in True = active, False = inactive

O=C(Cl)OCc1ccccc1
False
CCOc1cc(OP(=S)(OC)OC)nc(CC)n1
False
Clc1ccc(C(Cl)(Cl)Cl)cn1
True

Enquiry: How was CCC1(c2cccc(O)c2)CCCCN(C)C1 (stereo not drawn) classified in this test?
Return: False

Enquiry: Would you mind telling me which call this test gave CC1N=C(N)OC1c1ccccc1 (stereo not drawn) ?
Return: False

Enquiry: Hey, what did the test say about NCCOS(=O)(=O)O ?
Return: False

Enquiry: # lookup: test call for C=CC=O
Return: False

Enquiry: Assay result, entry O=C(O)C(Br)(Br)Br — outcome?
Return: False

----------
Assay: qHTS RealTime-Glo MT Cell Viability Assay in HepG2 cells - 16 hour (AID 1224885); further: on the % scale 0 is the no-effect control and ±100 the full control effect; nearly all actives have a fitted effect of over 50% in size
Settings: RealTime-Glo luminescence; series mostly up to 76.8 µM
Inconclusive results are not listed. The source made the active and inactive calls. Calls follow the shape of the dose curve; as a rule, active = well fitted cell-killing curve with a large enough effect in the repeat runs; inconclusive = weak or mixed curves; inactive = flat fitted curve, though single readings scatter.
Attribute Measured: activity change, negative = cytotoxic

CNC(=O)Oc1cc(C)c(N(C)C)c(C)c1
inactive
COC(=O)c1ccccc1CS(=O)(=O)NC(=O)Nc1nc(OC)cc(OC)n1
inactive
CCC(=O)c1ccc(Cl)cc1
inactive

----------
Test: qHTS assay to identify small molecule antagonists of the retinoid-related orphan receptor gamma (ROR-gamma) signaling pathway - cell viability counter screen (AID 1159520); further: on the % scale 0 is the no-effect control and ±100 the full control effect; nearly all actives have a fitted effect of over 50% in size
Settings: Tet-on RORgamma CHO cells viability, ATP luminescence, 16 h; series mostly up to 92.4 µM
Records with an inconclusive call do not appear. Calls of active or inactive are those of the source. Calls follow the shape of the dose curve; as a rule, active = well fitted cell-killing curve with a large enough effect in the repeat runs; inconclusive = weak or mixed curves, or effect the other way; inactive = no such curve, though single readings can be large or run the other way.
Attribute Measured: activity, negative = cytotoxicity

CC1NCCOC1c1ccccc1 (configuration not stated)
inactive
CCC(C(N)=O)N1CCCC1=O (configuration not stated)
inactive
Cc1cccc2sc3nncn3c12
inactive
CC[C@@H](CO)NC(=O)[C@@H]1C=C2c3cccc4c3c(cn4C)C[C@H]2N(C)C1
inactive
CC[C@@H](CO)NC(=O)[C@@H]1C=C2c3cccc4[nH]cc(c34)C[C@H]2N(C)C1
inactive

Give activity, negative = cytotoxicity for each of the items listed below.
1. CC(C)(O)C(Cl)(Cl)Cl
2. O=P(O)(O)c1ccccc1
3. CN1COCN(Cc2cnc(Cl)s2)/C1=N\[N+](=O)[O-]
4. CNC(=O)NC(O)C(Cl)(Cl)Cl (configuration not stated)
5. O=c1[nH]oc2c1CCNC2
6. N=C(N)[Se]
7. CCOc1cc(OP(=S)(OC)OC)nc(CC)n1
8. N#CN=C1SCCN1Cc1ccc(Cl)nc1

Return:
1. inactive
2. inactive
3. inactive
4. inactive
5. inactive
6. inactive
7. inactive
8. inactive

----------
Test: qHTS assay to identify small molecule antagonists of the peroxisome proliferator-activated receptor gamma (PPARg) signaling pathway - cell viability counter screen (AID 743194); further: on the % scale 0 is the no-effect control and ±100 the full control effect; nearly all actives have a fitted effect of over 55% in size
Conditions: PPARg-bla HEK293H viability, CellTiter-Glo luminescence, 17 h; co-treated with 50 nM rosiglitazone; series mostly up to 62.6 µM
Records with an inconclusive call do not appear. Calls of active or inactive are those of the source. Calls come from the whole dose curve; as a rule, active = well fitted cell-killing curve with a large enough effect in the repeat runs; inconclusive = weak or mixed curves, or effect the other way; inactive = no such curve, though single readings can be large or run the other way.
Attribute Measured: outcome

Worked examples follow.
CC(C)[C@]12CC(=O)[C@H](C)[C@H]1C2
inactive
ClCOCCl
inactive
CCC1(c2ccccc2)CCC(=O)NC1=O (configuration not stated)
inactive
COC(=O)c1ccc(CBr)cc1
inactive
CCC(C)(C#N)N=NC(C)(C#N)CC (configuration not stated)
inactive

Please give outcome, item by item, for the list that follows.
1. BrCC1CO1 (configuration not stated)
2. CCCCCCCCBr
3. C=C(C)[C@H]1CN[C@H](C(=O)O)[C@H]1CC(=O)O
4. CC(C)(N)Cc1ccccc1Cl
5. CN1C(=O)COc2c(C(=O)NC3CN4CCC3CC4)cc(Cl)cc21 (configuration not stated)
6. Cc1cccc2sc3nncn3c12
7. CC(C)c1ccc(O)cc1
8. CN1COCN(Cc2cnc(Cl)s2)/C1=N\[N+](=O)[O-]

Return:
1. inactive
2. inactive
3. inactive
4. inactive
5. inactive
6. inactive
7. inactive
8. inactive

Please look at the items below and tell me outcome for each one, in order.
1. CC1N=C(N)OC1c1ccccc1 (configuration not stated)
2. NNC(N)=O
3. CC[C@H](N)c1ccccc1
4. CCOC(=O)CCl

Return:
1: inactive; 2: inactive; 3: inactive; 4: inactive

For each of the items listed, what is its outcome?
1. CCC(C)C(C)(COC(N)=O)COC(N)=O (configuration not stated)
2. O=c1[nH]c2ccccc2n1C1CCNCC1
3. BrCCc1ccccc1
4. COc1ccc(CN2CCNCC2)c(OC)c1OC
5. CC(Cc1ccccc1)NCCn1cnc2c1c(=O)n(C)c(=O)n2C (configuration not stated)
6. C[C@H](CN1CCOCC1)C(C(=O)N1CCCC1)(c1ccccc1)c1ccccc1
7. O=C(CCl)NCO
8. C=CCc1cc(OC)c2c(c1)OCO2

Return:
1. inactive
2. inactive
3. inactive
4. inactive
5. inactive
6. inactive
7. inactive
8. inactive

----------
Biological target: Thyrotropin receptor (Homo sapiens)
Assay: qHTS assay to identify small molecule agonists of the thyroid stimulating hormone receptor (TSHR) signaling pathway (AID 1224843); further: on the % scale 0 is the no-effect control and ±100 the full control effect; nearly all actives have a fitted effect of over 45% in size
Details: TSHR-HEK293 cells, cAMP HTRF, agonist mode, 30 min; series mostly up to 92.4 µM
Records with an inconclusive call do not appear. Calls of active or inactive are those of the source. The call rests on the fitted dose curve.
Attribute Measured: activation

Use the examples below as a reference point.
[O-][Br+2]([O-])O
inactive
C=C1CC[C@@]2(O)[C@H]3Cc4ccc(O)c5c4[C@@]2(CCN3CC2CC2)[C@H]1O5
inactive
C=C1C[C@@H]2[C@H](CC[C@]3(C)C(=O)CC[C@@H]23)[C@@]2(C)C=CC(=O)C=C12
inactive
ClCCCCl
inactive
COc1ccc(C=O)cc1O
inactive
Nc1c(Cl)c(F)nc(OCC(=O)O)c1Cl
inactive
CC(C)(O)C(Cl)(Cl)Cl
inactive
N=C(N)[Se]
inactive

Could you tell me activation for each of these compounds? They are listed below.
1. C[C@]12C=CC(=O)C=C1CC[C@@H]1[C@@H]2CC[C@@]2(C)[C@H]1CC[C@]2(C)O
2. CCC1(c2cccc(O)c2)CCCCN(C)C1 (centres undefined)
3. O=C(Cl)C(Cl)(Cl)Cl
4. OP(O)c1ccccc1
5. CC(Cc1ccccc1)NCCCCl (centres undefined)
6. CNC(=O)O/N=C(/CSC)C(C)(C)C

Return:
["inactive", "inactive", "inactive", "inactive", "inactive", "inactive"]
